Test: Evaluation of conversion rate to active form in buffer solution (Experimental Example 1)
Assay type: physicochemical
Conditions: pH6.5, 0 hr
Parameter Measured: Residual rate (%)
Please respond with the number in % and leave the unit unwritten.

Solved entries (count: 5):
Molecule: CC(C)[C@H](N)C(=O)O[C@@H]1CN(C)CC[C@@H]1c1c(O)cc(O)c2c(=O)cc(-c3ccccc3Cl)oc12 [Comparative Example 10, reference compound]
Residual rate (%): 93.2
//
Molecule: CCNC(=O)O[C@@H]1CN(C)CC[C@@H]1c1c(O)cc(O)c2c(=O)cc(-c3ccccc3Cl)oc12 [Comparative Example 4, reference compound]
Residual rate (%): 97.7
//
Molecule: CN1CC[C@H](c2c(O)cc(O)c3c(=O)cc(-c4ccccc4Cl)oc23)[C@H](OC(=O)CN)C1 [Comparative Example 8, reference compound]
Residual rate (%): 83.3
//
Molecule: CCOC(=O)O[C@@H]1CN(C)CC[C@@H]1c1c(O)cc(O)c2c(=O)cc(-c3ccccc3Cl)oc12 [Comparative Example 3, reference compound]
Residual rate (%): 90.8
//
Molecule: CN1CC[C@H](c2c(O)cc(O)c3c(=O)cc(-c4ccccc4Cl)oc23)[C@H](OC(=O)[C@@H](N)CO)C1 [Comparative Example 9, reference compound]
Residual rate (%): 86.0

INPUT: Please look at this molecule and report its Residual rate: CNC(=O)Oc1cc(O)c2c(=O)cc(-c3ccccc3Cl)oc2c1[C@H]1CCN(C)C[C@H]1O [Comparative Example 2, reference compound]
OUTPUT: 91.5

INPUT: Please look at this molecule and report its Residual rate: CNC(=O)O[C@@H]1CN(C)CC[C@@H]1c1c(O)cc(O)c2c(=O)cc(-c3ccccc3Cl)oc12 [Comparative Example 5, reference compound]
OUTPUT: 93.5

INPUT: Please look at this molecule and report its Residual rate: CNCCN(C)C(=O)Oc1cc(O)c2c(=O)cc(-c3ccccc3Cl)oc2c1[C@H]1CCN(C)C[C@H]1O [Comparative Example 14, reference compound]
OUTPUT: 95.4

INPUT: Please look at this molecule and report its Residual rate: C[C@H](N)C(=O)O[C@@H]1CN(C)CC[C@@H]1c1c(O)cc(O)c2c(=O)cc(-c3ccccc3Cl)oc12 [Comparative Example 7, reference compound]
OUTPUT: 96.0

INPUT: Please look at this molecule and report its Residual rate: CN1CC[C@H](c2c(OC(=O)N(C)CCN)cc(O)c3c(=O)cc(-c4ccccc4Cl)oc23)[C@H](O)C1 [Comparative Example 13, reference compound]
OUTPUT: 99.5
